Numbers sourced from ChEMBL document CHEMBL1201862.

For each record, write down the corresponding EC50.
Target: Mucolipin-3 (Homo sapiens, UniProt Q8TDD5)
Sequence (Q8TDD5 whole entry): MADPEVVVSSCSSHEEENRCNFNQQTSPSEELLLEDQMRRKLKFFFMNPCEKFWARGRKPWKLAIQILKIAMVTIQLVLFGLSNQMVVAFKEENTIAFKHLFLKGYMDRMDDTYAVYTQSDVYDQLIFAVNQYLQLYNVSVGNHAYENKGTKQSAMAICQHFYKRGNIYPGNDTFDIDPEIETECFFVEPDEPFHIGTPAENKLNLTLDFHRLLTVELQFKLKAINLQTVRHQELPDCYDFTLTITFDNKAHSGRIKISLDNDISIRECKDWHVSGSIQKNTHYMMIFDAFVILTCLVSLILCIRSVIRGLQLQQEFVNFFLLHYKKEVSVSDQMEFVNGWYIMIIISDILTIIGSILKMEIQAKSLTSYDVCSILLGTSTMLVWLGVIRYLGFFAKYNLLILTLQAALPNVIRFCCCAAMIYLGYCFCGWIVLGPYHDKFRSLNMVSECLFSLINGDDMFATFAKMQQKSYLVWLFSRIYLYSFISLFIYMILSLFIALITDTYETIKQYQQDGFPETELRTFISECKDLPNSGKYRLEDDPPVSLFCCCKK
Test: Dose response cell-based high-throughput screening assay for agonists of the transient receptor potential channel ML3 (TRPML3). [Related pubchem assays: 1526, 1424, 1448 ]
Format: functional
The source made the active and inactive calls. Rule as the data show it: active = EC50 of 10 µM or less and inactive = more.

Problem: Look up EC50: `N=C1SCC(=O)N1c1ncc(Cc2ccccc2Cl)s1`
Result: 1.16 µM (active)

Problem: How about this compound: `CC1=CC(C)(C)N(C(=O)CN2C(=O)c3ccccc3C2=O)c2ccccc21`
Result: 1.45 µM (active)

Problem: How about this compound: `Cc1ccc(S(=O)(=O)NC2CCCCC2)c2nsnc12`
Result: 8.34 µM (active)

Problem: How about this compound: `Cc1cc(C)c(S(=O)(=O)Nc2ccccc2-c2ccccc2)c(C)c1`
Result: 5.34 µM (active)
